Data origin: PubChem BioAssay (NCI)

system: SK-MEL-2 melanoma; assay: NCI tumour cell line growth inhibition, 48 h
measurement.type: TGI

compound: CN(CCCCCl)P(=O)(OCCS(=O)(=O)CC(NC(=O)CCC(N)C(=O)O)C(=O)NC(C(=O)O)c1ccccc1)OCC1OC(n2cc(F)c(=O)[nH]c2=O)CC1O (stereo unspecified)
assayed.system: SK-MEL-2 melanoma
TGI: > 100 µM
//
compound: COc1ccc(C(=O)N2c3ccccc3Sc3ccccc32)c(OC)c1
assayed.system: SK-MEL-2 melanoma
TGI: > 100 µM
//
compound: Cc1ccc(NC(=O)c2ccccc2C(=O)O)cc1C
assayed.system: SK-MEL-2 melanoma
TGI: > 100 µM

Which measured TGI value corresponds to COc1ccc2cc(-c3c(-c4ccncc4)nc(-c4ccc(S(C)=O)cc4)n3C)ccc2c1 (stereo unspecified) ?
> 25 µM

# TGI lookup, item "Nc1ccc(-c2nc3ccccc3[nH]2)c2ccccc12"
> 100 µM

Returns the measured TGI for the input compound. Input: CC(C)(CC(O)C#N)/[N+]([O-])=[N+](\[O-])C(C)(C)CC(O)C#N (stereo unspecified)
> 100 µM

* * *

Listed here: items and their measured TGI.
test system: CAKI-1 renal; assay: NCI tumour cell line growth inhibition, 48 h

Here is how some molecules turned out for TGI.
molecule: CCC1(O)C(=O)OCc2c1cc1n(c2=O)Cc2cc3cc(N)ccc3nc2-1 (stereo unspecified)
TGI: 0.343 µM
--
molecule: Cc1ccc(N=Nc2c(O)c(C(=O)Nc3ccccc3)cc3ccccc23)c([N+](=O)[O-])c1
TGI: > 100 µM
--
molecule: CNc1ccc(N)cc1C(=O)N1CCC[C@H]1CO
TGI: > 100 µM

Switching to the query record.
Fill in: TGI of "O=C(/C=C/c1csc(-c2ccccc2)n1)NCc1ccc(C(=O)NCc2ccccc2)cc1" is ___
> 100 µM

* * *

Documented log10 TGI across a set of molecules
tested on: MDA-MB-435; assay: NCI tumour cell line growth inhibition, 48 h
A value of 2 here means TGI of 100 in µM, since values are log10.

molecule: CC1=CC(=O)C(O)C2(C)C1CC(O)C13COC4(C)C(OC(=O)C41)C(O)C23 (stereo not drawn)
measurement.type: log10 TGI
number: 1.63

molecule: COc1ccc(OC)c(Cn2cc3c(c2)-c2oncc2CC3)c1
measurement.type: log10 TGI
number: 0.15

molecule: Cn1cc(-c2nonc2-c2cn(C)c3ccccc23)c2ccccc21
measurement.type: log10 TGI
number: -0.20

molecule: CCN1C(=O)N(CC)C2C1NN=c1s/c(=C3\C(=O)N(CCc4ccccc4)c4ccccc43)c(=O)n12 (stereo not drawn)
measurement.type: log10 TGI
number: -0.16

molecule: COc1cc2c(c(OC)c1OC)-c1ccc(SC)c(=O)cc1[C@@H](NC1OC(CO)C(O)C(O)C1O)CC2 (stereo partly drawn)
measurement.type: log10 TGI
number: -1.43

molecule: O=C(Oc1cccnc1)c1ccsc1Nc1ccnc(C(F)(F)F)c1
measurement.type: log10 TGI
number: 1.07

molecule: CCN(CC)Cc1sc2nc3ccccc3n2c1-c1ccc(OC)cc1
measurement.type: log10 TGI
number: 1.11

molecule: CCN1C(=O)N(CC)C2C1NN=c1s/c(=C\c3ccccc3Br)c(=O)n12 (stereo not drawn)
measurement.type: log10 TGI
number: -1.38

Which log10 TGI is reported for this molecule? "CN(CCCNC(=O)c1nn(-c2ccc(Cl)cc2Cl)c2c1Cc1ccccc1-2)CCCNC(=O)c1nn(-c2ccc(Cl)cc2Cl)c2c1Cc1ccccc1-2"
0.41

Returns the measured log10 TGI for the input molecule. Input: "CN1CCN(Cc2ccc(NC(=O)c3[nH]ncc3Nc3ncnc4sc5c(c34)CCCC5)cc2)CC1"
0.23

Name the recorded log10 TGI for "O=[N+]([O-])c1cc(S(=O)(=O)Oc2ccccc2)ccc1Cl" .
0.49

Would you kindly share the measured log10 TGI for CC1(C)OC2C(=O)C=C(COCc3ccccc3)C2O1 (stereo not drawn) ?
1.85

Which log10 TGI value is on record for "COc1cc(/C=C/[N+](=O)[O-])cc(Br)c1OC" ?
0.79
